Listed below are compounds with IC50 for UniProt:P24941, each taken from published literature.

smilesStructure: CNCc1ccc(NC(=O)c2ccc(C(=O)Nc3ccc(-n4cncn4)cc3)s2)c(C)c1
IC50: 1000 to 40000 nM

smilesStructure: CCn1cc(-c2ccnc(Nc3cccc(S(N)(=O)=O)c3)n2)c2ccnc(Cl)c21
IC50: 4 nM

smilesStructure: COc1ccc(C(=O)Nc2ccc(C(=O)Nc3ccc(-n4ccnc4)cc3)o2)c(C)c1
IC50: ≥ 40000 nM

smilesStructure: NS(=O)(=O)c1ccc(Nc2nccc(-c3cnn4ncccc34)n2)cc1
IC50: < 100 nM

----------
Below are pIC50 measurements against Cyclin-dependent kinase 2 (Homo sapiens) drawn from the literature.
pIC50: −log10 of the molar value.
readoutName: pIC50

compound: Cn1nc(-c2ccc(Cl)cc2)cc1NC(=O)c1ccc(C(=O)Nc2ccc(-n3cncn3)cc2)s1
result: ≤ 4.40
//
compound: CC(C)N1CCOc2c(F)cc(-c3nc(Nc4ccc(N5CCOCC5)cn4)ncc3F)cc21
result: 7.17
//
compound: COc1ccc(NC(=O)c2ccc(C(=O)Nc3ccc4nc(C)ccc4c3)s2)c(C)c1
result: ≤ 4.40
//
compound: O=C(Nc1ccc(-n2cncn2)cc1)c1ccc(C(=O)N2CCN(c3ccccc3)CC2)s1
result: ≤ 4.40
//
compound: O=C(NCCN1CCCC1)c1ccc(C(=O)Nc2ccc(-n3cncn3)cc2)s1
result: 4.40 to 6.00
//
compound: CC(C)N1CCOc2c(F)cc(-c3nc(Nc4ccc5c(c4)C(=O)NCC5)ncc3F)cc21
result: 7.13
//
compound: COc1cccc(-c2cnc(Nc3ccc(CN4CCCCC4)cc3)o2)c1
result: > 6.00
//
compound: Cc1cc(Cn2ccnc2)ccc1NC(=O)c1ccc(C(=O)Nc2ccc(-n3cncn3)cc2)s1
result: ≥ 6.00
//
compound: COc1ccc(NC(=O)c2ccc(C(=O)Nc3ccc(C#N)cc3)s2)c(C)c1
result: ≤ 4.40
//
compound: COc1cccc(-c2cnc(Nc3ccc(N4CCN(C)CC4)c(C)c3)o2)c1
result: > 6.00
//
compound: CC(CN(C)C)NC(=O)c1ccc(C(=O)Nc2ccc(-n3cncn3)cc2)s1 (stereo not drawn)
result: ≤ 4.40
//
compound: Cc1cnc(CNC(=O)c2ccc(C(=O)Nc3ccc(-n4cncn4)cc3)s2)cn1
result: ≤ 4.40
//
compound: CC(C)N1CCOc2c(F)cc(-c3nc(Nc4ccc5[nH]nc(C6CCNCC6)c5c4)ncc3F)cc21
result: 7.82
//
compound: O=C1CCCN1CCCNc1nccc(-c2cnn3ncccc23)n1
result: > 7.00
//
compound: CC(C)c1c2c(nn1C)CCc1cnc(Nc3ccc(N4CCNCC4)cn3)nc1-2
result: 6.28
//
compound: COc1ccc(NC(=O)c2ccc(C(=O)Nc3ccc(-n4cncn4)cc3F)s2)c(C)c1
result: ≤ 4.40
//
compound: O=C(NCCN1CCOCC1)c1ccc(C(=O)Nc2ccc(-n3cncn3)cc2)s1
result: ≤ 4.40
//
compound: O=C1Nc2ccc3ncccc3c2/C1=C/Nc1ccc(CN2CCOCC2)cc1
result: > 7.00
//
compound: CC(C)N1CCOc2c(F)cc(-c3nc(Nc4ccc(S(N)(=O)=O)cc4)ncc3F)cc21
result: 8.49
//
compound: CN1CCC(c2ccc(Nc3cc4c(cn3)cc(C#N)c(=O)n4C3CCCC3)cc2)CC1
result: 6.06
//
compound: O=C1Nc2ncc(Br)cc2C1=CNc1ccc2cn[nH]c2c1
result: 7.00 to 8.00
//
compound: C=CC(=O)Nc1ccc(Nc2n[nH]c3c2CN(C(=O)N[C@H](CN(C)C)C2CCOCC2)C3(C)C)cc1
result: < 5.00
//
compound: CN(Cc1ccco1)C(=O)c1ccc(C(=O)Nc2ccc(-n3cncn3)cc2)s1
result: ≤ 4.40
//
compound: c1cc(Nc2nccc(-c3cnn4ncccc34)n2)cc(-c2cnco2)c1
result: > 7.00
//
compound: Cc1nc2c(n1C1CCCC1)-c1nc(Nc3ccc(N4CCNCC4)cn3)ncc1C2
result: 5.08
//
compound: N#Cc1cc2cnc(NC3CCN(S(=O)(=O)C(F)F)CC3)nc2n(C2CCCC2)c1=O
result: 5.73
//
compound: CCN(CC)CCNC(=O)c1ccc(Nc2ncc(-c3cccc(OC4CCCC4)c3)o2)cc1
result: > 6.00
//
compound: COc1cccc(-c2cnc(Nc3ccc(N4CCN(C)CC4)c(F)c3)o2)c1
result: > 6.00
//
compound: O=S(=O)(NCCO)c1ccc(Nc2nc(Nc3ccc(S(=O)(=O)NCCO)cc3)c3cnn(C4CCCCC4)c3n2)cc1
result: 5.41
//
compound: C=CC(=O)Nc1cccc2c(Nc3n[nH]c4c3CN(C(=O)N[C@H](CN(C)C)C3CCOCC3)C4(C)C)nccc12
result: < 5.00
//
compound: O=C(Nc1ccc(-n2cncn2)c(F)c1)c1ccc(C(=O)Nc2ccccc2F)s1
result: ≥ 6.00
//
compound: COCc1nn(C(C)C)c2c1CCc1cnc(Nc3ccc(N4CCNCC4)cn3)nc1-2
result: < 5.00
//
compound: COc1cccc(-c2cnc(Nc3ccc(N4CC(C)NC(C)C4)cc3)o2)c1 (stereo not drawn)
result: > 7.00
